Measured PBM binding z-score accompanies every entry in the list below.
# Test system: PPARg:RXRa 90nM:30nM, anti-RXR (NR concentration 90 nM, RXRa partner concentration 30 nM)
# test.summary: PBM binding z-score (relative to random genomic background probes); higher = stronger binding; sequences stand for … in GC…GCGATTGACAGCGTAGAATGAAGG
test.readout: PBM binding z-score

INSERT INTO results (macromolecule_sequence, reading) VALUES
  ('CCAGACAGGTGAAAGGTAACCCAGTCTGGTACGC', 5.97),
  ('CCGAGTAGGTTATGGGGCGTTCAGGCAACGGTGA', 3.39),
  ('CCGAGTAGGTTATTGGGCATTCAGGCAACGGTGA', 1.6),
  ('CCTCGGAGGCCAGAAGGTCAGAGCTGTCCGCTTT', 0.521),
  ('CGAAGTAGGTCATTGACAGGACAGTGAATAGTAA', 6.57),
  ('ATACCAAGGTGAACGTGAGGTCGTTGATACTAAC', 1.48),
  ('CCTTACGGGTCGAGGTTATAGCACGGGTGGTACG', 0.242),
  ('GCAGACAGGTGAAACGCAGGTAACGCAGGGTGGC', -0.0828),
  ('TATACAGGGTCAAACGCCAGAGTACGAATGTCGA', 5.94),
  ('GCTTGTAGATCAAGGTTAATAAAGACTAAGCTAA', 1.78),
  ('CCGGCTAGGTCATGGTCAGCTAATCTACAGTATG', 1.38),
  ('CCTTACGGGTCTCTGACAGGTTATAGCATTTGGA', -0.00111),
  ('AGAATGAGGTTATTATGATCAGGGAATTGCGGTC', 1.48),
  ('CGATCGAGGGCATGAGTTGATAGCAAATGCCGAT', 0.755),
  ('CGTACTGGGCCATTCAGAGGTCATTGATCATATG', 2.44),
  ('GCTTGTAGATCAAGGTTAAAAAAGACTAAGCTAA', 1.79),
  ('ACTTACGGGTCAACGAGGTTATAGCGCGCGTATA', 4.49),
  ('TAGCCTAGGTCATTCAGGGGCCAATATAGAAAGC', 1.51),
  ('TCGAGTTGGTTACCAATGGGGCATTCAGCTTTCT', 0.652),
  ('ATCTCTAGGTAAGACTCGGTTCAGTGAAGAACGC', 0.278),
  ('CTACCAAGGTGAACAATGTCGTTGATTACTATTC', 0.326),
  ('CCTAGTTGGTCTAGGTCACACACGCTATAGGTAC', 0.958),
  ('TCTAGCAGCCCAGAGGGTCACTCAAGAGGTACGG', 1.2),
  ('GGAACGAGGGCAAAGTTGTTAGCATCTGTCGACG', 4.84),
  ('CCAGACAGGTGAAAGGGAACTCAGTCTGGTACGC', 2.69),
  ('TCTTATAGATCAACAGGAGGTTAAGAAAGATCGA', 2.93),
  ('TTACCAAGGTGAATGTCGTTGATCCCTCTGTAGA', 0.922),
  ('GCGACTGGGGCAAAGCAGGTTACGATAAGGTTGG', 0.405),
  ('ACTATTAGTTGAGACGAGGCCAACCGATAGGTTG', -0.176),
  ('GCGACTGGGGTATCAGCAGGTTACCATAACTTAA', -0.489),
  ('CAAACTCGGTCACAGAGGTCAAAGTCCGTGCGTA', 5.58),
  ('CGTCCAAGGTCAAAGGTTAGTGAAGAGATGACGG', 8.3),
  ('CTCGAAAGGTCGGTCGAGGTGAGTATACGGATAA', 0.892),
  ('ACGTACGGGTCAACGAGGTTATAGCACGCGTATA', 3.46),
  ('ATCTCTAGGTAACCAAGTTCCGTGAATGCCGAAC', 0.181),
  ('CCCCGGAGGACAACAGGAGGTCAGAGCTGCCAGA', -0.262),
  ('TCATATAGGTAAACAGGTGAAGGTCCGTAAGTTA', 3.46),
  ('ACTATTAGTTGACTTAGCGCAACCGATACGACGC', 0.0233),
  ('ATCTCTATGTAACCAAGTTCAGTGAATGCCGAAC', 0.387),
  ('AGAACGAGGGCACGCTGAGTTGATAGAAGAGTAG', 1.11),
  ('GGAACGAGGGCGTTCGAGTTGATAGCATGGCGAT', -0.797),
  ('CTCGAAATGTCGGTTGAGGTGAGTATACGGATAA', -0.0265),
  ('ATATGTAGGTAATCGGGTCATTCAGTTTGCGCAT', 4.77),
  ('AGAATGAGGTTACCAAAGATCTGGGAAACGCTTG', 1.91),
  ('AGAATGAGGTTACCAAATATCAGGGAAACGCTTG', 2.04),
  ('CGTCCAAGGTCAAAGATCAGTGAAGAGATGACGG', 5.64),
  ('CTCGTAAGGTCGGTTGAGGTGAGTATACGGATAA', 0.326),
  ('AGAAAGAGGTTACCAAAGATCAGGGAAACGCTTG', 1.77),
  ('GGAACGAGGGCACAGTTGATAGCATCTGTCGACG', 3.28),
  ('GCTTGTAGATCAAGGTTAAGTAAGACTAAGCTAA', 1.78),
  ('CCTTACGGGTCACAAGGTTATAGCACGACGAGCG', 4.65);

Data provenance: the supplement of paper PMC6555819
